- SUBJECT_OF_TEST: Mitogen-activated protein kinase 3 (Homo sapiens)
- ASSAY_CONTEXT: at 1 µM
Below, each entry is listed with its recorded inhibition.

Recorded results for 2 molecules are shown here.
CC1(C)CC(n2cnc(-c3ccc(F)cc3)c2-c2ccnc(N)n2)CC(C)(C)N1 = 1.92%
Cn1c(-c2nonc2N)nc2cnccc21 = 3.9%

Quick check: inhibition on Mitogen-activated protein kinase 3 (Homo sapiens), item NS(=O)(=O)c1ccc(N/N=C2\C(=O)Nc3cccc(CCc4ccncc4)c32)cc1 ? -1.26%

Quick check: inhibition on Mitogen-activated protein kinase 3 (Homo sapiens), item COc1ccc(Nc2ncc(-c3ccccc3)o2)cc1OC ? 1.29%

Quick check: inhibition on Mitogen-activated protein kinase 3 (Homo sapiens), item NS(=O)(=O)c1ccc(N/N=C2\C(=O)Nc3ccc(C(=O)NCc4ccncc4)cc32)cc1 ? 26.3%

Quick check: inhibition on Mitogen-activated protein kinase 3 (Homo sapiens), item Cc1nnc(-c2cccc(-c3ccc(C(=O)NCC4CC4)cc3)c2)o1 ? 6.64%

Quick check: inhibition on Mitogen-activated protein kinase 3 (Homo sapiens), item Fc1cccc(COc2ccc(Nc3ncncc3C#Cc3ccccc3)cc2Cl)c1 ? 5.53%

Quick check: inhibition on Mitogen-activated protein kinase 3 (Homo sapiens), item COc1cc(N2CCN(C(C)C)CC2)ccc1Nc1nc(Nc2cccc(F)c2C(=O)O)c2cc[nH]c2n1 ? 5.94%

Quick check: inhibition on Mitogen-activated protein kinase 3 (Homo sapiens), item CC(C)c1ccc(-c2cc(-c3c[nH]nc3-c3ccccn3)ccn2)cc1 ? -2.17%

* * *

Below, each entry is listed with its recorded inhibition.
- SUBJECT_OF_TEST: Dual specificity protein kinase TTK (Homo sapiens)
- Sequence (whole entry): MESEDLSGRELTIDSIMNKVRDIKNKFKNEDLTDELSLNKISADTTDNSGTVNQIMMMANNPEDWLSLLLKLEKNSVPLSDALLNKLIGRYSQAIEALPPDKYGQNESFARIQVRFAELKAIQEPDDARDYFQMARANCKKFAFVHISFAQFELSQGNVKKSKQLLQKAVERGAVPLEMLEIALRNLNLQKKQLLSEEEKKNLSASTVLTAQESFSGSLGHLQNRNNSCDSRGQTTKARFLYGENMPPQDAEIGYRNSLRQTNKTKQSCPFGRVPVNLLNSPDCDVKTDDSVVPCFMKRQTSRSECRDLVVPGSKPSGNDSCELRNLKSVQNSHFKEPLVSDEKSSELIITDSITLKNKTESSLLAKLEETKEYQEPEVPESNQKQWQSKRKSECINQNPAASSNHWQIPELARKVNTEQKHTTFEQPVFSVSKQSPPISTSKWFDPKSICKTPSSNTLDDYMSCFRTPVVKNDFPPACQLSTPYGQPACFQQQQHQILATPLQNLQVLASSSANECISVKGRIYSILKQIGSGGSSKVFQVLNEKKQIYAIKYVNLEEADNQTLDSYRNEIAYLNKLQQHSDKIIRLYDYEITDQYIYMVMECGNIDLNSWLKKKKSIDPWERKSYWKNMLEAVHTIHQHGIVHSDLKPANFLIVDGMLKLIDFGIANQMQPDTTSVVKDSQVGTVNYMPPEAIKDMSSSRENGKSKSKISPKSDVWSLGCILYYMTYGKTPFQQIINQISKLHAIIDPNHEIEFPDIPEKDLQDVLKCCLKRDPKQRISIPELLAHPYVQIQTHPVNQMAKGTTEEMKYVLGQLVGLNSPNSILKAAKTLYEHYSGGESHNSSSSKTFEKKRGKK
- ASSAY_CONTEXT: at 1 µM
Hi! Could you send only the number? It should be in %, unit omitted.

Recorded results for 3 molecules are shown here.
COc1c(C(N)=O)cc(-c2ccc(Cl)cc2)cc1-c1ccc(S(N)(=O)=O)cc1 = 12.9
N#Cc1ccc2c(-c3ccnc(NC4CC4)n3)c(-c3ccc(F)cc3)nn2c1 = 3.53
COc1ccccc1-c1cc(/C=C2\C(=O)Nc3ncc(Br)cc32)cc(Br)c1O = 9.88

# evaluate next
Entry Cc1nnc(-c2cccc(-c3ccc(C(=O)NCC4CC4)cc3)c2)o1 : reported inhibition = ? 0.98

* * *

Below, each entry is listed with its recorded inhibition.
- SUBJECT_OF_TEST: Protein-tyrosine kinase 2-beta (Homo sapiens)
- ASSAY_CONTEXT: at 0.1 µM
Please answer using the number first and the unit second.

Recorded results for 3 compounds are shown here.
CCS(=O)(=O)c1ccc(OC)c(Nc2ncc(-c3cccc(C(C)=O)c3)o2)c1 = 5.43%
COc1ccc(-c2nn3ncccc3c2-c2ccnc(Nc3ccc(F)c(F)c3)n2)cc1 = 6.54%
O=C(O[C@H]1CN[C@H](C#Cc2cc3ncnc(Nc4ccc5c(ccn5Cc5cc(F)ccc5F)c4)c3s2)C1)N1CCOCC1 = 13.2%

Entry CCn1c(-c2nonc2N)nc2cncc(C(=O)NCCNC)c21 : reported inhibition = ? 4.6%

Entry c1cnn2ncc(-c3ccnc(NCCCN4CCOCC4)n3)c2c1 : reported inhibition = ? 9.94%

* * *

- SUBJECT_OF_TEST: Protein-tyrosine kinase 6 (Homo sapiens) (UniProt Q13882)
- Sequence (Q13882 whole entry, looked up): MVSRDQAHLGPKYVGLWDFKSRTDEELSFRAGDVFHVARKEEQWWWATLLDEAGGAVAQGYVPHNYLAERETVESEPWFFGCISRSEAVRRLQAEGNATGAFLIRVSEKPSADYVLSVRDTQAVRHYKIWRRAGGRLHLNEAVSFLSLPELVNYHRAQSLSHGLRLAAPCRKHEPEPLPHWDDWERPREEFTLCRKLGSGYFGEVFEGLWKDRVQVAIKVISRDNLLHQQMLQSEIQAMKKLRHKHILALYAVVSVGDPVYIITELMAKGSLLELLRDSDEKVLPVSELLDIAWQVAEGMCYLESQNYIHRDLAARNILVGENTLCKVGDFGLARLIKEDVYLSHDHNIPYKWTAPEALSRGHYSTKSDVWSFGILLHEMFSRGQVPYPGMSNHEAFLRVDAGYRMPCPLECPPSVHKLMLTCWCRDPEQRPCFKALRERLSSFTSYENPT
- ASSAY_CONTEXT: at 0.1 µM
- Description: GSK_PKIS: BRK mean inhibition at 0.1 uM [Nanosyn]
Respond with t for inhibition values of 4% and above, f for values below.

Has CN1CCC(n2cnc(-c3ccc(F)cc3)c2-c2ccnc(NCCO)n2)CC1 a recorded inhibition greater than or equal to 4%? f

Has COc1ccccc1-c1cc(/C=C2\C(=O)Nc3ncc(Br)cc32)cc(Br)c1O a recorded inhibition greater than or equal to 4%? t

Has COc1ccc(-c2nn3ncccc3c2-c2ccnc(Nc3ccc(F)c(F)c3)n2)cc1 a recorded inhibition greater than or equal to 4%? t

Has CNC(=O)c1cncc(/C=C/c2ccccc2C)c1 a recorded inhibition greater than or equal to 4%? t

Has CN(c1ccc(NC(=O)NCCN2CCOCC2)cc1)c1ccnc(Nc2ccc(CS(C)(=O)=O)cc2)n1 a recorded inhibition greater than or equal to 4%? f

* * *

- SUBJECT_OF_TEST: Tyrosine-protein kinase Lck (Homo sapiens)
- ASSAY_CONTEXT: at 1 µM
Below, each entry is listed with its recorded inhibition.
Please answer using the number first and the unit second.

COc1cc(N2CCN(C(C)C)CC2)ccc1Nc1nc(Nc2cccc3ncccc23)c2cc[nH]c2n1 = 3.07%
CS(=O)(=O)CCNCc1ccoc1-c1ccc2ncnc(Nc3ccc(OCc4ccccc4)cc3)c2c1 = 8.23%
CS(=O)(=O)Nc1ccc(-c2cc(-c3ccccc3)cc(C(N)=O)c2N)cc1 = 2.43%
COc1cccc(Nc2nccc(-c3cnn4ncccc34)n2)c1 = 11.2%
O=C(O[C@H]1CN[C@H](C#Cc2cc3ncnc(Nc4ccc(OCc5cccc(F)c5)c(Cl)c4)c3s2)C1)N1CCOCC1 = 1.88%

Entry c1ccc(-c2n[nH]cc2-c2ccnc(-c3ccc(OCCn4ccnc4)cc3)c2)nc1 : reported inhibition = ? 12.7%

Entry Cc1cc(O)cc(C)c1/C=C/c1cncc(C(N)=O)c1 : reported inhibition = ? 44.1%

Entry Cc1cc(O)cc(C)c1/C=C/c1cncc(C(=O)OC(C)(C)C)c1 : reported inhibition = ? 26.8%

Entry CC1=C(C(=O)Nc2ccc3[nH]nc(C)c3c2)C(c2ccc(C(F)(F)F)cc2)CC(=O)N1 (centres undefined) : reported inhibition = ? 18.8%

* * *

- SUBJECT_OF_TEST: Tyrosine-protein kinase Mer (Homo sapiens) (UniProt Q12866)
- Sequence (Q12866 whole entry): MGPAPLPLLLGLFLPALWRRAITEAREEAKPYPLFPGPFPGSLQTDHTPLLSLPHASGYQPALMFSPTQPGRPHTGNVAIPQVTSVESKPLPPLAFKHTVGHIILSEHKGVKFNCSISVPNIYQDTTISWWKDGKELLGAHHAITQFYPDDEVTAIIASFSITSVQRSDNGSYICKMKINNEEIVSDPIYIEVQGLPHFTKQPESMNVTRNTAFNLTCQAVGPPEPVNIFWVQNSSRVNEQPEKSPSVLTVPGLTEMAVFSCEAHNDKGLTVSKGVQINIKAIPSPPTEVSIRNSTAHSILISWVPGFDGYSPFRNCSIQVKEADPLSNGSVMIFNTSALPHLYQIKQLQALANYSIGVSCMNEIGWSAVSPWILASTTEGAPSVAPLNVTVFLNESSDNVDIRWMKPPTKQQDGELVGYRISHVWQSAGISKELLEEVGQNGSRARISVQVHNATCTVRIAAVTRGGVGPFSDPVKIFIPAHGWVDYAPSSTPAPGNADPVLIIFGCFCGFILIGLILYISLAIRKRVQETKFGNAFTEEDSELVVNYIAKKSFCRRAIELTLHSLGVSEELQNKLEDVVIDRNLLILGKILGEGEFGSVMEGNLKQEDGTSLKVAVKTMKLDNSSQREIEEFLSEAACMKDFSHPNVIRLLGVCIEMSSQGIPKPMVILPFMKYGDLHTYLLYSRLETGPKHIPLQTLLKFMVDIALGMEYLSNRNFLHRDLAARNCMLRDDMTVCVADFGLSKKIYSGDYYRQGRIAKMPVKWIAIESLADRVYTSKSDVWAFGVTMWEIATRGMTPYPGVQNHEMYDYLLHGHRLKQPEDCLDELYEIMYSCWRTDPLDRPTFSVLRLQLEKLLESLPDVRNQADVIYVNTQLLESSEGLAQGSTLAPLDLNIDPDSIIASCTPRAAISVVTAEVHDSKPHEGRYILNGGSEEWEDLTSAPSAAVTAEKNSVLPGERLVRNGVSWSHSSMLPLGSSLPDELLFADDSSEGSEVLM
- ASSAY_CONTEXT: at 0.1 µM
Below, each entry is listed with its recorded inhibition.
Hi! Could you send only the number? It should be in %, unit omitted.

Recorded results for 3 molecules are shown here.
CC(C)c1ccc(-c2cc(-c3c[nH]nc3-c3ccccn3)ccn2)cc1 = -0.12
CS(=O)(=O)CCNCc1ccc(-c2ccc3ncnc(Nc4ccc(OCc5ccccc5)cc4)c3c2)o1 = 7.16
COc1cc(Nc2ncc(-c3ccccc3)o2)cc(OC)c1 = 3.6

Entry O=C(O[C@H]1CN[C@H](C#Cc2cc3ncnc(Nc4ccc(OCc5cccc(F)c5)c(Cl)c4)c3s2)C1)N1CCOCC1 : reported inhibition = ? 2.6

Entry c1ccc(-c2n[nH]cc2-c2ccnc(-c3ccc(OCCn4ccnc4)cc3)c2)nc1 : reported inhibition = ? 0.8

* * *

- SUBJECT_OF_TEST: Protein-tyrosine kinase 2-beta (Homo sapiens) (UniProt Q14289)
- Sequence (Q14289 whole entry, looked up): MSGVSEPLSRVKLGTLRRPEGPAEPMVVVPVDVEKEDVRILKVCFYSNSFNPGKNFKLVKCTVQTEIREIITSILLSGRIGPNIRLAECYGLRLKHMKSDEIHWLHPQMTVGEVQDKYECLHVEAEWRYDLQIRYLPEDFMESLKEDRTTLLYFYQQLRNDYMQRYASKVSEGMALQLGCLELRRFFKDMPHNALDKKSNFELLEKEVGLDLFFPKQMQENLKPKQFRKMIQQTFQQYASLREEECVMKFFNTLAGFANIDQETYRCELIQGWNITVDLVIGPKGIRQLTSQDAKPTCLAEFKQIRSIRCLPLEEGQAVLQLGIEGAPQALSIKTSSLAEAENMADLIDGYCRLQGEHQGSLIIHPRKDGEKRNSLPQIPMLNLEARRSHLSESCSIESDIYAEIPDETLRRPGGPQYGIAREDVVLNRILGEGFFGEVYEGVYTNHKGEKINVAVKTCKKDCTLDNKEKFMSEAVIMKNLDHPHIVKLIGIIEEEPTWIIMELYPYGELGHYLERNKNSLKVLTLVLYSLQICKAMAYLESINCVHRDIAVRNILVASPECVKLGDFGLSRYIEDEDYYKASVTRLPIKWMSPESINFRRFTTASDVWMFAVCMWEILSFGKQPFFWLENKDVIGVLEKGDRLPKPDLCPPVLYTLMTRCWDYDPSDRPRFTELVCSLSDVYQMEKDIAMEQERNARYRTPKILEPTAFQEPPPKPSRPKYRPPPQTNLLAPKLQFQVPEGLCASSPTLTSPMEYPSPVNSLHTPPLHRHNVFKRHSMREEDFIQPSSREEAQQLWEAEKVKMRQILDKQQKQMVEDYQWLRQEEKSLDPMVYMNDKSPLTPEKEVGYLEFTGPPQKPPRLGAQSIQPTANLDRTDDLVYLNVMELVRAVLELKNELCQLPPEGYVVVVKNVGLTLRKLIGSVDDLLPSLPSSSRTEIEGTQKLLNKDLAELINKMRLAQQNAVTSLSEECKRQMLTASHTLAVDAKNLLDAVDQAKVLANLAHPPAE
- ASSAY_CONTEXT: at 1 µM
Respond with YES for inhibition values of 10% and above, NO for values below.

As a guide, the following entries are already answered.
CS(=O)(=O)CCNCc1ccc(-c2ccc3ncnc(Nc4ccc(OCc5cccc(C(F)(F)F)c5)cc4)c3c2)o1 = YES
COC(=O)Nc1nc2ccc(Oc3ccc(NC(=O)Nc4cc(C(F)(F)F)ccc4F)cc3)cc2s1 = NO
c1ccc(-c2n[nH]cc2-c2ccnc(-c3ccc(OCCn4ccnc4)cc3)c2)nc1 = NO
COc1ccc2ncn(-c3cc(O[C@H](C)c4ccccc4C(F)(F)F)c(C(N)=O)s3)c2c1 = NO

Here is the next item to consider.
Has COc1c(C(N)=O)cc(-c2ccc(Cl)cc2)cc1-c1ccc(S(N)(=O)=O)cc1 a recorded inhibition greater than or equal to 10%? YES

Each recorded value in this set is attributed to ChEMBL document CHEMBL1961873.
